// provenance: paper PMC9482650

Kindly state pKd for each of the entries shown.
# EXPERIMENTAL_SYSTEM: T1, APBA1_2, Q02410
# T1 sequence (Q02410 742-832, limits assumed, looked up): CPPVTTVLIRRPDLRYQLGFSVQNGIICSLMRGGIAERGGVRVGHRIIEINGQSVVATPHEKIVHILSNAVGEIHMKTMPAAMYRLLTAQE
# METHOD: holdup assay
# Design: key: below the threshold = too weak to quantify, mostly under pKd 3.1 to 4
# SETTINGS: plain residues with an end cap or a label only (N-terminal biotin on a linker: ado-ado)
Answers are plain numbers.

// solved cases for pKd follow
Given the entry REEPDHSTEV [CCRL2, O00421] , report its measured pKd.
3.9

Find the recorded pKd belonging to GTGYDRKDYV [CLDN3, O15551] and report it.
4.24

I'd like to know its pKd. The binder in question is NNNVVKVDSV [MTNR1A, P48039]
3.92

# input binder: DDASLPVSDV [PLEKHA1, Q9HB21] ; wanted: its pKd
3.89

// query pKd value for entry QSYPSKHDYV [CLDN18, P56856]
4.45

For each entry beneath this line, provide reported pKd.
1. VKRNSKETVV [MARCHF3, Q86UD3]
2. SPDRDRESIV [SCN5A, Q14524]
3. EIPAQSPTCV [FZD10, Q9ULW2]

1: 3.88; 2: 3.55; 3: 4.77
